// values below are reported max activity
test: inhibitors of Toxoplasma growth in IFN-γ-primed HeLa – cell-based, ME49Luc, luciferase, 72 h, dose response (AID 1259418); details: T. gondii ME49Luc in IFN-y HeLa, hits give low values, -100% = high-dose IFN-γ control wells; at 19.5 µM unless noted
In all, about 3,400 compounds went through this assay and about 840 (25%) were called active. Inconclusive results (about 11%) are left out. A selection follows. Results with a measured potency or affinity are listed apart.

Known max activity results, listed for orientation:
Determine its reported max activity: COc1ccc(-c2nc(Nc3ccccc3Cl)c3ccccc3n2)cc1
-9.71% [at 0.35 µM] (inactive)

Determine its reported max activity: COc1ccc(S(=O)(=O)Nc2ccc(-c3nc(-c4ccc(C)cc4C)co3)cc2)cc1
26.2% [at 5 µM] (inactive)

Determine its reported max activity: COc1ccccc1-c1ccc2c(c1)[C@H]1[C@H](CCN1S(=O)(=O)c1ccc(C)cc1)[C@@H](CO)N2
38.9% (inactive)

Determine its reported max activity: CCC(=O)N1CCC2(CC1)Nc1ccc(C)c(C)c1-n1cccc12
-7.02% [at 5 µM] (inactive)

Determine its reported max activity: O=C(Cn1c(=O)c(S(=O)(=O)c2ccccc2)cc2ccccc21)N1CCCC1
-8.97% [at 0.16 µM] (inactive)

Determine its reported max activity: N#Cc1cccc(-c2ccc3c(c2)[C@H]2[C@H](CCN2C(=O)c2ccccc2F)[C@@H](CO)N3)c1
16.6% [at 10 µM] (inactive)

Determine its reported max activity: O=S(=O)(c1cccc(F)c1)N1CC[C@@H]2[C@H]1c1cc(C#Cc3ccccc3F)ccc1N[C@@H]2CO
6.78% [at 0.3 µM] (inactive)

Determine its reported max activity: CCOC(=O)Cn1cc(CN2CCCC2c2c(C)noc2CC)c2ccccc21 (centres undefined)
12.1% [at 0.16 µM] (inactive)

Now consider the entry below.
Determine its reported max activity: CCOC(=O)c1cccc(NC(=O)Nc2ccc(-c3nc(-c4ccc(C)cc4)co3)cc2)c1
67.3% (inactive)

Values from PubChem BioAssay AID1259418
